Let's look at some compounds and their measured CC50 at 48 h.
Assay: Cell proliferation assay (WST-1)
Type: cell-based
Details: human; Huh7.5.1 cells, 48 h, WST-1; mean of three experiments; read-out: CC50

compound	CC50 at 48 h
O=C(CSc1nc2ccccc2o1)Nc1cc(C(F)(F)F)cc(C(F)(F)F)c1	51.3 µM
Cc1ccc(N(Cc2cc3cccc(C)c3nc2O)S(=O)(=O)c2ccccc2)c(C)c1	> 100 µM
COc1cc(C(=O)NNS(=O)(=O)c2ccccc2)cc(OCc2ccccc2)c1OC	> 100 µM

### Prompt For Cc1ccc(O)c(NC(=O)COc2ccc3c(=O)c(-c4ccccc4)c(C)oc3c2)c1 , what is its reported CC50 at 48 h?
### Response > 100 µM

### Prompt For CC(C)OC(=O)[C@H](C)N[P@](=O)(OC[C@H]1O[C@@H](n2ccc(=O)[nH]c2=O)[C@](C)(F)[C@@H]1O)Oc1ccccc1 [PSI-7977, sofosbuvir, reference compound] , what is its reported CC50 at 48 h?
### Response > 20 µM

====

Test: Cell proliferation assay (WST-1)
Type: cell-based
Conditions: human
measured.attribute: CC50 at 48 h

### Prompt Consider the compound shown here: CCC[C@H](NC(=O)[C@@H]1[C@H]2CCC[C@H]2CN1C(=O)[C@@H](NC(=O)[C@@H](NC(=O)c1cnccn1)C1CCCCC1)C(C)(C)C)C(=O)C(=O)NC1CC1 [telaprevir, reference compound] What is its recorded CC50 at 48 h?
### Response > 10 µM

====

Endpoint: pIC50. System: HCV NS5B protein (Hepatitis C virus genotype 1b). Items follow.
Sequence (P26663 2420-3010): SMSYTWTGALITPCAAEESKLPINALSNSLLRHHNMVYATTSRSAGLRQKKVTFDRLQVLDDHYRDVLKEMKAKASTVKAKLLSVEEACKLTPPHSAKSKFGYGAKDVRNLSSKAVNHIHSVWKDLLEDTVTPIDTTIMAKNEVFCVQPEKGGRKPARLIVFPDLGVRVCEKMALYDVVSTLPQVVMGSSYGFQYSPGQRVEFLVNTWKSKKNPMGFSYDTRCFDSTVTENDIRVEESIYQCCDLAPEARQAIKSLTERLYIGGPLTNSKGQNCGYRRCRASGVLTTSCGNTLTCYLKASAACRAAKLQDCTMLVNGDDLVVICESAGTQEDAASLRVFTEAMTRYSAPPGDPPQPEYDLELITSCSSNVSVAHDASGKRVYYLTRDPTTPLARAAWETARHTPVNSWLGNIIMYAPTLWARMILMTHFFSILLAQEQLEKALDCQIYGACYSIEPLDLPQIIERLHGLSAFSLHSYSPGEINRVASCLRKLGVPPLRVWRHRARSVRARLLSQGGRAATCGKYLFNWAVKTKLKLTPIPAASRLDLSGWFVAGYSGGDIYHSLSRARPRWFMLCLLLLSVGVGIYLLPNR
Scale note: pIC50 = -log10(concentration in M).

compound	pIC50
COc1cc(C(=O)NNS(=O)(=O)c2ccccc2)cc(OCc2ccccc2)c1OC [N1]	5.44
Cc1ccc(O)c(NC(=O)COc2ccc3c(=O)c(-c4ccccc4)c(C)oc3c2)c1 [N4]	5.70
O=C(CSc1nc2ccccc2o1)Nc1cc(C(F)(F)F)cc(C(F)(F)F)c1 [N2]	5.52

Please find the next compound below.
### Prompt # input compound: Cc1ccc(N(Cc2cc3cccc(C)c3nc2O)S(=O)(=O)c2ccccc2)c(C)c1 [N5] ; wanted: its pIC50
### Response 5.66
